Reference source for all entries: ChEMBL document CHEMBL4004834

system: Beta-galactoside alpha-2,6-sialyltransferase 1 (Homo sapiens) (UniProt P15907)
Sequence (whole entry): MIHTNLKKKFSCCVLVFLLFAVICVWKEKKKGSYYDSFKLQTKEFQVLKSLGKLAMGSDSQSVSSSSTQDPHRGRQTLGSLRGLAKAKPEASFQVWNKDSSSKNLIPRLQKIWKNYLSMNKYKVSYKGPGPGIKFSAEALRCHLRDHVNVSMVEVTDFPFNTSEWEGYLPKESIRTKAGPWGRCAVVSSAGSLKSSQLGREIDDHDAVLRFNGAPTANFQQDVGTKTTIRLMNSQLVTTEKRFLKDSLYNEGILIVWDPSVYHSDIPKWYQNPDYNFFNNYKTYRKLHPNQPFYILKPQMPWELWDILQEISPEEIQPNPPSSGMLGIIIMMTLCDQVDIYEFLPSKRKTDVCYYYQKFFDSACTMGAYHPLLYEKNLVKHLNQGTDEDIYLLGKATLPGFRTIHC
measurement.description: Inhibition of recombinant human ST6Gal-1 (44 to 406 residues) assessed as ratio of CMP-Neu5Ac Km to compound Ki […] by UV/RP-HPLC method
reported.metric: Ratio

Example entries begin here.
Nc1ccn([C@@H]2O[C@H](COP(=O)(O)OC(C(=O)N3CCCC3)P(=O)(O)O)[C@@H](O)[C@H]2O)c(=O)n1 (stereo in doubt; 5c-S) | 694
CC(=O)N[C@H]1[C@H](Oc2ccccc2)OC(C(OP(=O)(O)OC[C@H]2O[C@@H](n3ccc(N)nc3=O)[C@H](O)[C@@H]2O)P(=O)(O)O)=C[C@@H]1O (stereo in doubt; 1-h) | 1580

a: Nc1ccn([C@@H]2O[C@H](COP(=O)(O)OC(C(=O)N3CCCCC3)P(=O)(O)O)[C@@H](O)[C@H]2O)c(=O)n1 (stereo in doubt; 5d-l)
b: Nc1ccn([C@@H]2O[C@H](COP(=O)(O)OC(c3ccccc3)P(=O)(O)O)[C@@H](O)[C@H]2O)c(=O)n1 (stereo in doubt; 2l)
c: Nc1ccn([C@@H]2O[C@H](COP(=O)(O)O[C@@H](c3cccc(Oc4ccccc4)c3)P(=O)(O)O)[C@@H](O)[C@H]2O)c(=O)n1
Sort (3 compounds) by Ratio: min first. When ranking, write the labels in the order the request describes.
b, a, c
(b: 46, a: 925, c: 2190)
